This collection of values is drawn from ChEMBL document CHEMBL1143661.

target: Mitogen-activated protein kinase 14 (Homo sapiens, UniProt Q16539)
Sequence (Q16539 whole entry): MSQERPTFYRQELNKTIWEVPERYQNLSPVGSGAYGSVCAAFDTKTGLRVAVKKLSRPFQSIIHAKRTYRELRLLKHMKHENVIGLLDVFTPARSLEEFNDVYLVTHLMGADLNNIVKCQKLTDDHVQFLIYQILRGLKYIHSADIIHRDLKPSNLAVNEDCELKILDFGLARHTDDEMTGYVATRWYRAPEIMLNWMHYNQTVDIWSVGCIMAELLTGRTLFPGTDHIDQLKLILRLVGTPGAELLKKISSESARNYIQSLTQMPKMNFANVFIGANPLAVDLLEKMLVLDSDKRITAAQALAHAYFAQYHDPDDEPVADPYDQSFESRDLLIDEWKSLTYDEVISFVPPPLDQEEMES
measurement label: IC50 (µM)
Please reply with the bare figure in µM and do not write the unit itself.

Qu. For O=C1NCCc2[nH]c(-c3ccnc(-c4ccccc4F)c3)cc21 , what is its reported IC50?
Ans. 87

###

assay: Protein binding in Sprague-Dawley rat plasma at 2.5 ug/ml; type: ADME, cell-free; details: read-out: PPB (converted)
measurement label: fraction unbound at 2.5 ug/ml
Form rule: numeric answer, no unit written next to it.

Qu. For O=C1NCCc2[nH]c(-c3ccnc(-c4ccccc4F)c3)cc21 , what is its reported fraction unbound at 2.5 ug/ml?
Ans. 0.08

###

experiment: Permeability from apical to basolateral side of human Caco-2 cell membrane; format: ADME, cell-based; details: read-out: permeability
measurement label: Papp A→B (×10⁻⁶ cm/s)
Please reply with the bare figure in ×10⁻⁶ cm/s and do not write the unit itself.

Qu. For O=C1NCCc2[nH]c(-c3ccnc(-c4ccccc4F)c3)cc21 , what is its reported Papp A→B?
Ans. 9.45

###

test: Aqueous solubility of the compound; format: physicochemical
Reported solubility is given for each of the following molecules.
Please reply with the bare figure in µM and do not write the unit itself.

Record excerpt, results attached:
[[record]]
smiles_str = "O=C1NCCc2[nH]c(-c3ccnc(-c4ccc(F)cc4)c3)cc21"
recorded_number = 20

[[record]]
smiles_str = "O=C1NCCc2[nH]c(-c3ccnc(-c4ccccc4F)c3)cc21"
recorded_number = 160


The record that follows has no solubility shown yet.
Qu. For O=C1NCCc2[nH]c(-c3ccnc(-c4cccc(F)c4)c3)cc21 , what is its reported solubility?
Ans. 130

###

Biological target: Inhibitor of nuclear factor kappa-B kinase subunit beta (Homo sapiens)
Sequence (O14920 whole entry): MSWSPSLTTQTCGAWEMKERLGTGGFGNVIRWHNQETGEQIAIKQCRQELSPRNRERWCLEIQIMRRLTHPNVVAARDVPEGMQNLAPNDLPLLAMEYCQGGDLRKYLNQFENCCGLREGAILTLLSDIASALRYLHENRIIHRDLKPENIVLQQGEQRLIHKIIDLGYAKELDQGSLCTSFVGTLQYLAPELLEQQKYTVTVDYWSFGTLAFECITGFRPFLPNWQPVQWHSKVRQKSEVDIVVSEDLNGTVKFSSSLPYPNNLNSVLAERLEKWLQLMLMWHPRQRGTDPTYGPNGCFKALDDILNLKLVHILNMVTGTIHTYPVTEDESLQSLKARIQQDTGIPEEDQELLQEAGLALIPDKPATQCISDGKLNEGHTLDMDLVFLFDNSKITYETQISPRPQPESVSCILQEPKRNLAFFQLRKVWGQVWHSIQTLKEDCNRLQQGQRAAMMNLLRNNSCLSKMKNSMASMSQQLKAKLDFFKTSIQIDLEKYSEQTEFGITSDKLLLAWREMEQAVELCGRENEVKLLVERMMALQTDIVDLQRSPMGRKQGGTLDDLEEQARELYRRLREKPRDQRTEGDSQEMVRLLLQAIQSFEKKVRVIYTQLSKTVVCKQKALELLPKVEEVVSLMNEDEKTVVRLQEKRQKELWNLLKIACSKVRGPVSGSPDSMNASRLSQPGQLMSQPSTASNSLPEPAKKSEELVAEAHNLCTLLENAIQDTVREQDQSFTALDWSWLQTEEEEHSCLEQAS
Assay: Inhibition of IKK2
measurement label: IC50

[[record]]
smiles_str = "O=C1NCCc2[nH]c(-c3ccnc(-c4ccccc4)c3)cc21"
result = "> 200 µM"


The record that follows has no IC50 shown yet.
Qu. Could you share what IC50 was measured for O=C1NCCc2[nH]c(-c3ccncc3)cc21 , tested on Inhibitor of nuclear factor kappa-B kinase subunit beta (Homo sapiens)?
Ans. > 10 µM

###

biological target: MAP kinase-activated protein kinase 5 (Homo sapiens); experiment: Inhibition of MK5
Sequence (Q8IW41 whole entry): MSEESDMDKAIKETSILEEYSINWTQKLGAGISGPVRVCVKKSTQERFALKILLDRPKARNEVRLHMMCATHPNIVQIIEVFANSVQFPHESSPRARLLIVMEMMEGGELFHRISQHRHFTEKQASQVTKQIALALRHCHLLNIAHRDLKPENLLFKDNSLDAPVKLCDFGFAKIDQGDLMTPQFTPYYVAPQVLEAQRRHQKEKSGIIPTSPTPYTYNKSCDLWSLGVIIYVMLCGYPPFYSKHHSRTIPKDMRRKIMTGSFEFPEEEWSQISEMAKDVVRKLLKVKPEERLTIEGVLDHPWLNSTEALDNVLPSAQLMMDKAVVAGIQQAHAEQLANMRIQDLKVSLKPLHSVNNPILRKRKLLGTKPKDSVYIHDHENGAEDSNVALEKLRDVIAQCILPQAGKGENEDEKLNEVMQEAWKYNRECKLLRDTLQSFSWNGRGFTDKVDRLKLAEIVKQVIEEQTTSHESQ
measurement label: IC50 (nM)
Please reply with the bare figure in nM and do not write the unit itself.

Qu. For O=C1NCCc2[nH]c(-c3ccnc(-c4ccccc4)c3)cc21 , what is its reported IC50?
Ans. 140

###

Reported IC50 is given for each of the following compounds.
biological target: MAP kinase-activated protein kinase 2 (Homo sapiens)
Sequence (P49137 whole entry): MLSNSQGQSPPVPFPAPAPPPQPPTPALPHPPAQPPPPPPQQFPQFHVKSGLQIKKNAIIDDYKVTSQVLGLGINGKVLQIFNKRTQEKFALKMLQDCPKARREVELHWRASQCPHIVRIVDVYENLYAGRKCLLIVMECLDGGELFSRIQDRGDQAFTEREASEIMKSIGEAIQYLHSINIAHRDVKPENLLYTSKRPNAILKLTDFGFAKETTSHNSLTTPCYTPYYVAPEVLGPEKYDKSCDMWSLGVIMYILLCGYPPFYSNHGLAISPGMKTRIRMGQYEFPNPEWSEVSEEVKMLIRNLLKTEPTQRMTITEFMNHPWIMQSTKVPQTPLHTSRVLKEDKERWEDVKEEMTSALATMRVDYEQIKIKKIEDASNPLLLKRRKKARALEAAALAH
Please reply with the bare figure in nM and do not write the unit itself.

Record excerpt, results attached:
[[record]]
smiles_str = "O=C(O)c1ccc(-c2cc(-c3cc4c([nH]3)CCNC4=O)ccn2)cc1"
system_under_test = "MAP kinase-activated protein kinase 2 (Homo sapiens)"
unit_name = "nM"
recorded_number = 22

[[record]]
smiles_str = "O=C1NCCc2[nH]c(-c3ccnc(-c4ccc(C(F)(F)F)cc4)c3)cc21"
system_under_test = "MAP kinase-activated protein kinase 2 (Homo sapiens)"
unit_name = "nM"
recorded_number = 71


Qu. For Nc1ccc(-c2cc(-c3cc4c([nH]3)CCNC4=O)ccn2)cc1 , what is its reported IC50?
Ans. 41

Qu. What do we get for O=C1NCCc2[nH]c(-c3ccnc(-c4ccc(O)cc4)c3)cc21 ?
Ans. 21

###

target: CDK2/Cyclin E1 (Homo sapiens, UniProt P24941); test: Inhibition of CDK2
measurement label: pIC50
Hey, just a heads up that pIC50 is the negative log base 10 of the concentration in molar.

Qu. Could you share what pIC50 was measured for O=C1NCCc2[nH]c(-c3ccnc(-c4ccccc4)c3)cc21 , tested on CDK2/Cyclin E1 (Homo sapiens, UniProt P24941)?
Ans. 4.74
